# protocol.summary: P. aeruginosa biofilm formation inhibitors, primary screen, strain PAO1, LB-PBS medium, absorbance 600 nm (AID 1176); further: test concentration not given here
# test.conditions: P. aeruginosa PAO1 growth/biofilm, A600, 12 h; higher = more signal
// label = Condition met if z-score is not less than 0.4, otherwise Condition not met

molecule	class.name
C=CCNC(=O)[C@H]1[C@@H]2C(=O)O[C@@H](c3ccccc3)[C@@H](c3ccccc3)N2[C@@H](c2ccc(O)cc2)[C@]12C(=O)N(C(=O)OCCOC)c1ccc(C#CCNC(N)=O)cc12	Condition met
[N-]=[N+]=NCc1ccccc1[C@@H]1OC(c2ccc(OCCCO)cc2)=N[C@]1(CCS(=O)(=O)c1ccccc1)C(=O)NCc1ccccc1	Condition met
CCCC[C@@H]1C[C@H]1[C@@H](NC(=O)c1ccco1)c1ccc(Cl)cc1	Condition not met
C#CCN(Cc1ccccc1Br)C(/C=C/c1ccccc1)CO (stereo not given)	Condition not met
O=C1NC(=O)C2C1C=CC(C(O)c1ccccc1)N2Nc1ccc(Cl)cc1Cl (stereo not given)	Condition met
COc1cc2c(cc1O)C=[N+](Cc1cccc(OC(F)(F)F)c1)CC2	Condition not met
Cc1ccc(S[C@]2(C(=O)NCCN3CCOCC3)CC(=O)N(Cc3ccccc3)[C@@H]2c2ccc(CO)cc2I)cc1	Condition met
COc1ccc(CCNC(=O)[C@@H]2c3ccccc3C(=O)N(C3Cc4ccccc4C3)[C@H]2c2ccc(CO)cc2)cc1	Condition not met
C=CCNC(=O)[C@@H]1[C@H]2C(=O)O[C@H](c3ccccc3)[C@H](c3ccccc3)N2[C@H](c2ccc(OCCO)cc2)[C@@]12C(=O)Nc1ccc(C#CCCO)cc12	Condition met
CN(C)CCCC[C@@H]1NC(=O)[C@H]2C[C@@H](C(=O)NCCCCCNC(=O)CS)[C@@H](c3cccc(OCCO)c3)N2C1=O	Condition met

---

# test.system: Dickkopf-related protein 1 (Homo sapiens) (UniProt O94907)
# Sequence (O94907 whole entry, looked up): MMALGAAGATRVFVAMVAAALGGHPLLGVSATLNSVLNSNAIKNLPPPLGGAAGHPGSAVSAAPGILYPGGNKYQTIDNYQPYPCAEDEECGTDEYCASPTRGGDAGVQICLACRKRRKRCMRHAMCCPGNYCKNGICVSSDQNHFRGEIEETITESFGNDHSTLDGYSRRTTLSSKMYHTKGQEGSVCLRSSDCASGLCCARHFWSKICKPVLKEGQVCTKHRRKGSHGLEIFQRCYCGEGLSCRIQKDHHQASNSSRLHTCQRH
# protocol.summary: DKK1 binders on small-molecule microarrays, primary screen, biochemical, small-molecule microarray, 635 nm fluorescence scan (AID 1106);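 further: score merges emission near 667 nm with signal to noise over three replicate slides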
# test.conditions: DKK1 binding, higher = more signal

molecule	composite z-score
COc1ccc([Si](C)(C)[C@H]2[C@H](CC(=O)N3CCC[C@H]3CO)O[C@@]3(C(=O)N(Cc4cccc(N5C(=O)c6cccc7cccc5c67)c4)c4ccccc43)[C@@H]2C)cc1	0.892
COCCOC(=O)N1C(=O)[C@@]2(c3cc(C#CCCO)ccc31)[C@H](C(=O)Nc1nc3ccccc3s1)[C@H]1C(=O)O[C@H](c3ccccc3)[C@H](c3ccccc3)N1[C@@H]2c1ccc(OCCO)cc1	0.31
CC(C)C(CO)N1C(=O)[C@@H]2[C@H]3C(=O)OCC=C[C@H]3OC23C=CCN(C(C)C)C(=O)[C@@H]13 (some centres undefined)	0.254
C=CCOC(=O)[C@H]1[C@@H]2C(=O)O[C@@H](c3ccccc3)[C@@H](c3ccccc3)N2[C@@H](c2ccc(OCCOC(=O)[C@@H]3C[C@@H]4C(=O)N[C@@H](CCCC[N+](C)(C)C)C(=O)N4[C@@H]3c3ccc(O)cc3)cc2)[C@]12C(=O)Nc1ccccc12	0.716

---

# protocol.summary: MM1S cell viability effects, profiling panel, calcein-AM fluorescence, 48 h, basal (AID 1165);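 further: viability of MM1S multiple myeloma cells under basal unstimulated conditions; test concentration not given here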
# test.conditions: higher = more signal

compound	z-score
CN1C(=O)C2C=CC(C(O)c3cc(C(F)(F)F)cc(C(F)(F)F)c3)N(N3CCCCC3)C2C1=O (centres undefined)	-1.02
CC(CO)N1C(=O)[C@@H]2C3C(=O)OCCC/C=C\[C@H]3OC23C=CCN(c2ccc4ccccc4c2)C(=O)[C@@H]13 (some centres undefined)	1.74
CN1C(=O)C2C=CC(C(O)Cc3ccccc3)N(Nc3ccccc3)C2C1=O (centres undefined)	-1.48
C=CC[C@@]1(C(=O)N(C)C)N=C(c2ccc(OCCCO)cc2)O[C@@H]1c1ccccc1N=[N+]=[N-]	-0.761
COc1ccc(C(=O)Nc2cccc(CN3C(=O)[C@]4(O[C@H](CCO)[C@@H]([Si](C)(C)c5ccc(OC)cc5)[C@@H]4C)c4ccccc43)c2)cc1	-2.78
CCOC(=O)C[C@H]1[C@H](OC(=O)c2cc3ccccc3oc2=O)[C@@H](NC(=O)C2CCCCC2)c2cc(OCCCO)ccc2N1C(=O)c1ccccc1	0.172
COCCOC(=O)N1C(=O)[C@@]2(c3cc(C#CC4(O)CCCCCC4)ccc31)[C@H](c1ccc(O)cc1)N1[C@H](c3ccccc3)[C@H](c3ccccc3)OC(=O)[C@H]1[C@@H]2C(=O)Nc1nc2ccccc2s1	-1.55
CCCCc1cn(C[C@H](Cc2ccccc2)NC(=O)N[C@H](CO)CCc2oc(C(C)=O)c(C(=O)OC)c2C(=O)OC)nn1	0.787
O=C1OCCC/C=C\[C@H]2OC34C=CCN(CCN5CCOCC5)C(=O)[C@H]3N(CCCO)C(=O)[C@@H]4C12 (some centres undefined)	1.19
CCCN1C(=O)[C@]2(CCS(=O)(=O)c3ccccc3)N=C(c3ccc(OCCCO)cc3)O[C@@H]2c2ccccc21	0.0361
CO[C@H]1O[C@H](CO)[C@@H](OC(=O)Nc2ccc(Br)cc2)[C@H](OC(=O)c2cc3ccccc3[nH]2)[C@H]1OC(=O)c1cc2ccccc2[nH]1	-3.23
CN1C(=O)C2C=CC(C(O)c3cccs3)N(Nc3ccccc3)C2C1=O (centres undefined)	-1.64
COC(=O)[C@@]1(Cc2ccc(OC)cc2)[C@H]2c3cc(C(=O)N4CCCC4)n(Cc4ccccc4)c3C[C@H]2CN1C(=O)c1ccccc1	-1.63
Cc1ccc(S[C@]2(C(=O)NCCN3CCOCC3)CC(=O)N(Cc3ccccc3)[C@@H]2c2ccc(CO)cc2I)cc1	-2.08

---

Recorded composite z-score, one value per entry.
# protocol.summary: binders of probe aFST on microarray, primary screen, stem cell growth factor project, biochemical, small-molecule microarray, fluorescence 635/667 (AID 1086);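 further: score merges 667 nm fluorescence with signal-to-noise of each printed compound spot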
# test.conditions: higher = more signal

molecule	composite z-score
CC(C)[C@@H](CO)NC(=O)[C@H]1[C@@H](c2ccccc2)N(c2ccccc2)O[C@@H]1C	-0.0238
COCC(=C=CC[C@H](O)c1ccccc1OCCO)C[C@H](O)c1cc(Cl)cc(Cl)c1O	0.372
COC(=O)[C@@]1(Cc2ccc(F)cc2)[C@H]2c3cc(C(=O)N4CCCC4)n(Cc4cc(C)n(C)n4)c3C[C@H]2CN1C(=O)c1ccccc1	0.939
CCN(CC)c1ccc(N2CC=CC34O[C@@H]5/C=C\CCCOC(=O)C5[C@H]3C(=O)N(CCO)[C@@H]4C2=O)cc1 (stereo not given in full)	-0.584
CC1CC/C=C\[C@H]2OC34C=CCN(C(C)(C)C)C(=O)[C@H]3N(CCCCCCO)C(=O)[C@@H]4C2C(=O)O1 (stereo not given in full)	-0.222
O=C1C2C=CC(C(O)C(c3ccccc3)c3ccccc3)N(n3cnnc3)C2C(=O)N1Cc1ccccc1 (stereo not given)	0.578
CC(C)c1ccc(NN2C(C(O)c3cc(C(F)(F)F)cc(C(F)(F)F)c3)C=CC3C(=O)N(c4ccccc4)C(=O)C32)cc1 (stereo not given)	0.273
CCOC(=O)C1=CCC(c2ccc(C)cc2)N(S(=O)(=O)c2ccc(C)cc2)C1 (stereo not given)	0.261
COC(=O)[C@@]1(Cc2ccccc2)[C@H]2c3cc(C(=O)N4CCCC4)n(CC4CC4)c3C[C@H]2CN1C(=O)c1ccccc1	2.15
COCCOC(=O)N1C(=O)[C@@]2(c3cc(C#Cc4ccc(OC)cc4)ccc31)[C@H](C(=O)N1CCCCCCC1)[C@H]1C(=O)O[C@H](c3ccccc3)[C@H](c3ccccc3)N1[C@@H]2c1ccc(OCCO)cc1	2.43
Cc1ccc(S[C@]2(C(=O)NC3CC3)CC(=O)N(C3Cc4ccccc4C3)[C@@H]2c2ccc(CO)cc2)cc1	-0.175
COCCOC(=O)N1C(=O)[C@@]2(c3cc(C#CC4(O)CCCCCC4)ccc31)[C@H](c1ccc(O)cc1)N1[C@H](c3ccccc3)[C@H](c3ccccc3)OC(=O)[C@H]1[C@@H]2C(=O)Nc1nc2ccccc2s1	2.31
CCCC[C@@H]1C[C@H]1[C@@H](NC(=O)c1ccco1)c1ccc(C(=O)OC)cc1	0.285
COCCCN1C(=O)[C@@]2(c3ccc([N+](=O)[O-])cc3)CC(=O)N(C3CCCCC3)[C@@H]2c2ccc(CO)cc21	-0.036
[N-]=[N+]=NCc1ccccc1[C@H]1OC(c2ccc(OCCCO)cc2)=N[C@@]1(Cc1ccccc1)C(=O)NCc1ccccc1	0.513
COc1ccc(CCNC(=O)[C@@H]2c3ccccc3C(=O)N(C3Cc4ccccc4C3)[C@H]2c2ccc(CO)cc2)cc1	-0.183
O=C1O[C@H](c2ccccc2)[C@H](c2ccccc2)N2[C@H]1[C@@H](C(=O)Nc1nc3ccccc3s1)[C@]1(C(=O)Nc3ccc(C#CCCO)cc31)[C@H]2c1ccc(OCCO)cc1	0.119
C=CCOC(=O)[C@H]1[C@@H]2C(=O)O[C@@H](c3ccccc3)[C@@H](c3ccccc3)N2[C@@H](c2ccc(OCCOC(=O)[C@@H]3C[C@@H]4C(=O)N[C@@H](CCCC[N+](C)(C)C)C(=O)N4[C@@H]3c3ccc(O)cc3)cc2)[C@]12C(=O)Nc1ccccc12	-0.367
C=CCN1C(=O)[C@@]2(O[C@@H](CCO)[C@H]([Si](C)(C)c3ccc(OC)cc3)[C@H]2C)c2cc(NC(=O)c3ccc(OC)cc3)ccc21	0.171
[N-]=[N+]=NCc1ccccc1C[C@@]1(C(=O)NCC(O)CO)N=C(c2ccc(OCCCO)cc2)O[C@@H]1c1ccccc1N=[N+]=[N-] (stereo not given in full)	1.66
O=C1c2ccccc2[C@@]2(Cc3ccccc3N(CCN3CCOCC3)C2=O)[C@H](c2ccc(CO)cc2)N1Cc1ccccc1	-0.0633
COCCCNC(=O)C1N=C(c2ccc(OCCCO)cc2)N(c2ccccc2)O1 (stereo not given)	0.504
[N-]=[N+]=Nc1ccccc1C[C@]1(C(=O)NCC(O)CO)N=C(c2ccc(OCCCO)cc2)O[C@H]1c1ccccc1N=[N+]=[N-] (stereo not given in full)	0.375
CN1C(=O)C2C=CC(C(O)C3CCCCC3)N(Nc3ccc([N+](=O)[O-])cc3[N+](=O)[O-])C2C1=O (stereo not given)	1.51
COCCOC(=O)N1C(=O)[C@@]2(c3ccccc31)[C@H](c1ccc(O)cc1)N1[C@H](c3ccccc3)[C@H](c3ccccc3)OC(=O)[C@H]1[C@@H]2C(=O)NC[C@H](O)c1ccccc1	0.118
